From: patent US4448962A

Attribute: MIC
# Tested on: Ps. aeruginosa IFO 12689
# experiment-summary: Antibacterial spectrum (Minimum Inhibitory Concentration)
# Format: cell-based
# applied-conditions: Pseudomonas aeruginosa, IFO12689, read-out: Minimum Inhibitory Concentration

molecule	study-system	measurement-units	bound-sign	MIC
CCn1cc(C(=O)O)c(=O)c2cc(F)c(N3CCNCC3)nc21.Cl	Ps. aeruginosa IFO 12689	µg/mL	=	6.25
CCn1cc(C(=O)O)c(=O)c2ccc(C)nc21 [Nalidixic, nalidixic acid, reference compound]	Ps. aeruginosa IFO 12689	µg/mL	>	200
O=C(O)c1cn(Cc2ccccc2)c2cc(N3CCNCC3)c(F)cc2c1=O	Ps. aeruginosa IFO 12689	µg/mL	=	6.25
C=Cn1cc(C(=O)O)c(=O)c2cc(F)c(N3CCNCC3)cc21.Cl	Ps. aeruginosa IFO 12689	µg/mL	=	1.56
